Please respond with reported abundance fitness for every item in the list.
B1: Intersectin-1, residues 909 to 971; numbered along this chain, Q15811 (parent)
chain: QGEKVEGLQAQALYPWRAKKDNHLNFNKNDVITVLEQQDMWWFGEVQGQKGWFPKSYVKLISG

variants of: B1; experiment: abundance fitness (aPCA) (normalised: wild type 0, dead -1); higher = more abundant; growth selection in yeast, the domain comes from the species named; conditions: Homo sapiens
Give bare numbers.

# batch: return abundance fitness for each of the 5 variants below
1. Q47K
2. Y14E
3. K55E
4. K28C
5. V58D

# output
1. 0.027
2. 0.023
3. -0.396
4. -0.172
5. -0.793

I have 3 variants here; please give me abundance fitness for each one.
1. G48M
2. H23I
3. V46E

# output
1. -0.226
2. -0.551
3. -0.584

For each of the items listed, what is its abundance fitness?
1. L13V
2. Y57R
3. Q1C

# output
[0.091, -0.013, -0.06]

Origin of the recorded values: the Human Domainome abundance scans (Beltran et al. 2025)
